# Assay Remarks: Cmax in Sprague-Dawley rat at 10 mg/kg, po measured after 24 hrs by LC-MS analysis
# Assay type: ADME, organism-based
# Condition Set: in vivo
Measured Quantity: Cmax (µg/mL)
One number for each entry, in µg/mL.

Record summary for `CCOc1nc(Cl)cc2c1cnn2CCCC(=O)O` : reported Cmax = 43.3

---

# Assay Remarks: Half-life in Sprague-Dawley rat at 10 mg/kg, po measured after 24 hrs by LC-MS analysis
# Format: ADME, organism-based
# Condition Set: in vivo
Measured Quantity: half-life (h)
One number for each entry, in h.

Record summary for `CCOc1nc(Cl)cc2c1cnn2CCCC(=O)O` : reported half-life = 9.3

---

# Assay Remarks: Half-life in Sprague-Dawley rat at 10 mg/kg, po measured after 48 hrs by LC-MS/MS analysis
# Format: ADME, organism-based
# Condition Set: in vivo
Measured Quantity: half-life (min)
One number for each entry, in min.

Record summary for `CCNc1cc(C(=O)C2CCCC2)ccc1OC` : reported half-life = 59.4

---

# Assay System: UniProt:Q08499
# Assay Remarks: Inhibition of PDE4D7 (unknown origin) using FAM-cyclic-3',5'-AMP as substrate at 100 nM incubated for 1 hrs by fluorescence polarization based IMAP assay relative to control
Returns one of 1 (yes) or 0 (no); 1 (yes) when inhibition is >= 9%.

Worked cases, answers included:
{"Compound": "CCOc1nc(Cl)cc2c1cnn2CCCO", "Label Value": "0 (no)"}
{"Compound": "CCOc1nc(Cl)cc2nn(CC(=O)O)cc12", "Label Value": "0 (no)"}
{"Compound": "CCOc1nc(Cl)cc2c1c(NCc1ccccc1)nn2CCCC(=O)O", "Label Value": "1 (yes)"}
{"Compound": "CCOc1nc(Cl)cc2nn(CCCC(=O)NO)cc12", "Label Value": "1 (yes)"}
{"Compound": "CNc1nc(Cl)cc2nn(C3CCOCC3)cc12", "Label Value": "1 (yes)"}

Quick check: does `CCOc1nc(Cl)cc2c1c(-c1cccc(OC)c1)nn2CCCC(=O)O` have inhibition greater than or equal to 9%?
0 (no)

---

# Assay System: 3',5'-cyclic-AMP phosphodiesterase 4D (Homo sapiens, UniProt Q08499)
# Sequence (Q08499 whole entry): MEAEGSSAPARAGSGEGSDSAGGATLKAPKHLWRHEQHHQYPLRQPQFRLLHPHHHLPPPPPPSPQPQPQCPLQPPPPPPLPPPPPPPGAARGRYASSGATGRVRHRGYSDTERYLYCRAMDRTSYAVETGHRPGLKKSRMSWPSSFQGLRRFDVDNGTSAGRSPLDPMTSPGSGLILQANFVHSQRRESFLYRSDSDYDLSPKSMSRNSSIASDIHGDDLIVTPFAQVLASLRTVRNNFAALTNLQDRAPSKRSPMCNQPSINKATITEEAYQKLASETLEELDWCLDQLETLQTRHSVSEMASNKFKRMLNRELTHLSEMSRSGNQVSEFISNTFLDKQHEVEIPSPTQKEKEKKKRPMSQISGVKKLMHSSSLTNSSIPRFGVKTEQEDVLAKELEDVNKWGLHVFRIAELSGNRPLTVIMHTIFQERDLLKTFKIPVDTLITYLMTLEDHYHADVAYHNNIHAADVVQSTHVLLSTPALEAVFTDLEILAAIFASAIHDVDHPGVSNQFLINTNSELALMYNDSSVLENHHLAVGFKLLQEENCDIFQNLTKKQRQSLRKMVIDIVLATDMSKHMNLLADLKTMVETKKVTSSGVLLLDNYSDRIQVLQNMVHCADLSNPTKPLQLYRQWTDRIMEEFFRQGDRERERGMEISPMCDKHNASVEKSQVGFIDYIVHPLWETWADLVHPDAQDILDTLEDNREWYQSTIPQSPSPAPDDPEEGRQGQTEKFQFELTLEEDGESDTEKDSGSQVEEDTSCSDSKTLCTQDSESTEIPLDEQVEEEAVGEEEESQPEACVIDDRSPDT
# Assay Remarks: Inhibition of PDE4D7 (unknown origin) using FAM-cyclic-3',5'-AMP as substrate at 10 nM incubated for 1 hrs by fluorescence polarization based IMAP assay relative to control
Measured Quantity: inhibition (%)
Numbers only, in %.

Here is how some molecules turned out for inhibition.
{"Sample Smiles": "CCOc1nc(Cl)cc2c1cnn2CC#N", "inhibition [%]": 3}
{"Sample Smiles": "CCOc1nc(Cl)cc2c1c(-c1cccc(OC)c1)nn2CCCC(=O)O", "inhibition [%]": 3}
{"Sample Smiles": "CCOc1nc(Cl)cc2c1c(C)nn2CCCC(=O)O", "inhibition [%]": 6}
{"Sample Smiles": "CCOc1nc(Cl)cc2c1cnn2CC(=O)NO", "inhibition [%]": 41}
{"Sample Smiles": "CCOc1nc(Cl)cc2c1cnn2CC(=O)N(C)O", "inhibition [%]": 5}

Below are 7 molecules. Give each one its inhibition.
1. CCOc1nc(Cl)cc2nn(CCCCO)cc12
2. CCOc1nc(Cl)cc2c1c(-c1ccncc1)nn2CCCC(=O)O
3. CCOc1nc(Cl)cc2c1cnn2CC(=O)O
4. CCOc1nc(Cl)cc2c1cnn2CCCCO
5. CCOc1nc(Cl)cc2c1c(/C=C/c1ccc(OC)cc1)nn2CCCC(=O)O
6. CCOc1nc(Cl)cc2c1c(NCc1ccccc1)nn2CCCC(=O)O
7. CCOc1nc(Cl)cc2nn(CC(=O)NO)cc12

1: 4; 2: 5; 3: 3; 4: 5; 5: 2; 6: 4; 7: 36

---

# Assay System: 3',5'-cyclic-AMP phosphodiesterase 4D (Homo sapiens)
# Assay Remarks: Inhibition of PDE4D7 (unknown origin) using FAM-cyclic-3',5'-AMP as substrate at 100 nM incubated for 1 hrs by fluorescence polarization based IMAP assay relative to control
Measured Quantity: inhibition (%)
Answers are plain numbers, in %.

{"Compound": "CCOc1nc(Cl)cc2c1cnn2CC1CCOC1 (centres undefined)", "Units Label": "%", "Obs Value": 9}
{"Compound": "CCOc1nc(Cl)cc2nn(CC3CCCO3)cc12 (centres undefined)", "Units Label": "%", "Obs Value": 10}
{"Compound": "CCOc1nc(Cl)cc2c1cnn2C1CCS(=O)(=O)CC1", "Units Label": "%", "Obs Value": 3}

Record summary for `CCCOc1nc(Cl)cc2c1cnn2C1CCOCC1` : reported inhibition = 2

---

# Assay System: 3',5'-cyclic-AMP phosphodiesterase 4D (Homo sapiens)
# Assay Remarks: Inhibition of PDE4D7 (unknown origin) using FAM-cyclic-3',5'-AMP as substrate at 10 nM incubated for 1 hrs by fluorescence polarization based IMAP assay relative to control
Measured Quantity: inhibition (%)
Numbers only, in %.

Here is how some compounds turned out for inhibition.
{"Sample Smiles": "CCOc1nc(Cl)cc2c1cnn2CCO", "Assay System": "3',5'-cyclic-AMP phosphodiesterase 4D (Homo sapiens)", "Units Label": "%", "inhibition": 3}
{"Sample Smiles": "CCOc1nc(Cl)cc2c1c(NCC(C)C)nn2CCCC(=O)O", "Assay System": "3',5'-cyclic-AMP phosphodiesterase 4D (Homo sapiens)", "Units Label": "%", "inhibition": 6}

Below are 4 compounds. Give each one its inhibition.
1. CCOc1nc(Cl)cc2nn(CCC(=O)O)cc12
2. CCOc1nc(Cl)cc2c1cnn2CC(=O)NOC
3. CCOc1nc(Cl)cc2nn(CCCO)cc12
4. CCOc1nc(Cl)cc2c1cnn2CC(N)=O

1: 35; 2: 4; 3: 21; 4: 3
